Data origin: PubChem BioAssay (NCI)

Tested on: NCI-H226 lung
run_description: NCI-60 one-dose screen, 48 h (100 = growth as untreated, 0 = no growth, -100 = all killed)
protocol_conditions: 10 µM unless noted
Method: Growth inhibition of the NCI-H226 human Non-Small Cell Lung tumor cell line is measured as a screen for anti-cancer activity. Cells are grown in 96 well plates and exposed to the test compound for 48 hours. Compounds are tested at a single concentration, which is 10^-5 M for most compounds. The reported endpoint is percent growth (GI% or GIPRCNT), where numbers from 0 - 100% represent growth inhibition, and numbers from -100% - 0 represent cell death. […]
The panel holds about 83,000 compounds, 20% with a hit somewhere; the sample as a whole holds those more often.
API: label(entry) gives Y if the entry's growth is strictly smaller than 80%; on equality or larger values it gives N.

> print(dat)
                                   molecule    measured.on  assigned.label
1  CCCCSc1nc(NCCc2c[nH]c3ccccc23)c(C#N)c(-c2ccccc2)n1  NCI-H226 lung               Y

# input Is 80% strictly greater than the molecule's reported growth? molecule: Cn1cc(-c2cc(N)n3nc(-c4c[nH]c5ccccc45)cc3n2)c2cccnc21
# output Y

# input Is 80% strictly greater than the molecule's reported growth? molecule: O=C(Cn1c(/C=C/c2cccc([N+](=O)[O-])c2)nc2ccccc2c1=O)Nc1ccccc1
# output Y

# input Is 80% strictly greater than the molecule's reported growth? molecule: O=C(CSc1nc2ccccc2c(=O)[nH]1)NCCN1CCCCC1
# output N

# input Is 80% strictly greater than the molecule's reported growth? molecule: COc1ccc(C(=O)/C=C/c2ccccc2Cl)cc1S(N)(=O)=O
# output N

# input Is 80% strictly greater than the molecule's reported growth? molecule: CCCCCCCCc1ccc(S(=O)(=O)Nc2ccc(CC)cc2C(=O)O)cc1
# output N

# input Is 80% strictly greater than the molecule's reported growth? molecule: O=C(NN1C(=O)/C(=C/C=C/c2ccc([N+](=O)[O-])o2)SC1=S)c1cccc(O)c1
# output Y

# input Is 80% strictly greater than the molecule's reported growth? molecule: CN(C)CCCNC(=O)c1cc(NC(=O)c2cc(NC(=O)c3ccc(C#Cc4ccccc4)cc3)cn2C)cn1C
# output Y

# input Is 80% strictly greater than the molecule's reported growth? molecule: COc1ccc(-c2ccc(SCC(=O)NCCc3ccc(S(N)(=O)=O)cc3)nn2)cc1
# output Y

# input Is 80% strictly greater than the molecule's reported growth? molecule: CCOC(=O)/C=C/c1cccc2c1C(=O)NC(C)(c1cc3cc(Cl)ccc3oc1=O)N2 (stereo not given)
# output Y

# input Is 80% strictly greater than the molecule's reported growth? molecule: Cn1cc(-c2cc3nc(-c4cn(C)c5ncc(Br)cc45)cc(N)n3n2)c2cc(Cl)ccc21
# output Y

# input Is 80% strictly greater than the molecule's reported growth? molecule: CCCCOc1ccc(NC(=O)c2sc3nc(C)ccc3c2N)cc1
# output Y

# input Is 80% strictly greater than the molecule's reported growth? molecule: COc1ccc(C2=NN(c3ccccc3)C(c3ccc(OCc4ccccc4)c(OC)c3)C2)cc1OC (stereo not given)
# output N

# input Is 80% strictly greater than the molecule's reported growth? molecule: COc1ccc(-c2nc3cc(C)ccc3n2CC(=O)N=Nc2c(O)[nH]c3ccc(OC)cc23)cc1
# output Y

# input Is 80% strictly greater than the molecule's reported growth? molecule: Cn1nc(C(F)(F)F)cc1-c1cc(Cl)c(COc2ccc(Cl)cc2)c(-c2ccc(Cl)c(C(F)(F)F)c2)c1O
# output Y

----------
System: HCT-116 colon
run_description: NCI-60 one-dose screen, 48 h
protocol_conditions: 10 µM unless noted
Method: Growth inhibition of the HCT-116 human tumor cell line is measured as a screen for anti-cancer activity. Cells are grown in 96 well plates and exposed to the test compound for 48 hours. Compounds are tested at a single concentration, which is 10^-5 M for most compounds. The reported endpoint is percent growth (GI% or GIPRCNT), where numbers from 0 - 100% represent growth inhibition, and numbers from -100% - 0 represent cell death. For example, a value of 40 represents 60% growth inhibition. […]
Compounds without any hit were thinned out: in the full panel of roughly 83,000, 20% have a hit. Activity calls are given as the source filed them. How the source made its calls: active means growth percent below 10; inactive means the rest.
Give your call using only these classes: active, inactive

Example entries begin here.
compound	measured_on	assigned_label
COc1ccc(-c2nc3cc(C)ccc3n2CC(=O)N=Nc2c(O)[nH]c3ccc(Br)cc23)cc1	HCT-116 colon	active
O=C(N/N=C/c1ccc(-c2ccc(O)cc2)s1)c1[nH]c2ccc(Br)cc2c1-c1ccccc1	HCT-116 colon	active
COc1ccc(-c2nc(SCC(C)C)nc(NCCc3c[nH]c4ccccc34)c2C#N)cc1	HCT-116 colon	inactive
CC1(C)CC[C@]2(C(=O)O)CC[C@]3(C)C(=CCC4[C@@]5(C)C[C@@H](O)[C@@H]6OC(c7ccccc7F)OC[C@@]6(C)C5CC[C@]43C)C2C1 (stereo partly drawn)	HCT-116 colon	active
CC(=O)Nc1cccc(Nc2nc(N[C@H]3CCCc4ccccc43)c3ccccc3n2)c1	HCT-116 colon	inactive
COc1ccc(-c2nc3cc(C)ccc3n2CC(=O)N=Nc2c(O)[nH]c3ccc(Cl)cc23)cc1	HCT-116 colon	active
COc1cc2oc(-c3cccc(NC(=O)[C@H](CC(N)=O)NC(=O)OC(C)(C)C)c3)cc(=O)c2c(OC)c1OC	HCT-116 colon	inactive
O=C(COc1ccc(NC(=O)Nc2ccc(Cl)c(Cl)c2)cc1)N=Nc1c(O)[nH]c2ccc([N+](=O)[O-])cc12	HCT-116 colon	inactive
C#C[C@]1(O)CC[C@H]2[C@@H]3CC=C4c5sc(-c6ccc([N+](=O)[O-])cc6)nc5CC[C@]4(C)[C@H]3CC[C@@]21C	HCT-116 colon	active
C#CCOc1ccc(/C=N/Nc2nc(-c3cc4cc(Br)ccc4oc3=O)cs2)cc1OC	HCT-116 colon	inactive

# input How was COc1cc2c(c(OC)c1OC)C(=O)CC(c1cccc(NC(=O)c3cc(N)ccc3Cl)c1)O2 (stereo not drawn) classified in this test?
# output inactive

# input How was N#Cc1c(-c2cccc(Cl)c2Cl)cc(-c2ccc3ccccc3c2)[nH]c1=O classified in this test?
# output active

# input How was O=C(Cn1c(/C=C/c2ccccc2)nc2ccccc2c1=O)Nc1ccc(Cl)cc1 classified in this test?
# output inactive

# input How was Cc1ccc(-c2nc(C#N)c(S(=O)(=O)N3CCN(S(=O)(=O)c4ccccc4)CC3)o2)cc1 classified in this test?
# output active

# input How was CC(C)CCNC(=O)N/C(N)=N/c1nc2ccccc2s1 classified in this test?
# output inactive

# input How was Cc1ccc(NC(=O)CN2CCN(c3ncnc4c3cnn4-c3ccccc3)CC2)cc1 classified in this test?
# output inactive

# input How was COc1ccc(NC(=O)Cn2c3c(sc2=O)[C@H]2[C@@H](O)[C@@H](O)[C@H](O)[C@@H]2CS3)cc1 classified in this test?
# output inactive

# input How was Nc1cc2ccccc2c(=O)n1NC(=O)c1ccc(I)cc1 classified in this test?
# output inactive

----------
System: RPMI-8226 leukemia
run_description: NCI-60 one-dose screen, 48 h
protocol_conditions: 10 µM unless noted
About 83,000 compounds went through this panel and 20% of them were active in at least one assay; those are over-represented in the sample as a whole. Active and inactive are the calls of the source. How the source made its calls: active means growth percent below 10; inactive means the rest.
Give your call using only these classes: True = active, False = inactive

Example entries begin here.
compound	assigned_label
CC1=C(C(=O)OCc2ccccc2)C(c2ccc(-n3cncn3)cc2)n2c(nc3ccccc32)N1 (stereo not given)	False
Cc1cc(=O)oc2cc(OCCOc3ccc(/C=C/C(=O)Nc4ccccc4N)cc3)ccc12	True
COc1ccc(-c2ccc(SCC(=O)NCCc3ccc(S(N)(=O)=O)cc3)nn2)cc1	False
N#Cc1c(-c2cccc(Cl)c2Cl)cc(-c2ccc3ccccc3c2)[nH]c1=O	False
O=C1N/C(=N\c2nccs2)S/C1=C\C=C/c1ccccc1	False
COc1ccc(/C=C/c2nc3ccccc3n3c(-c4ccc(Cl)cc4)nnc23)cc1	False
CC1=C(C(=O)c2ccccc2)C(c2cccc(Cl)c2Cl)n2c(nc3ccccc32)N1 (stereo not given)	False
COc1cc(C2CC(c3cc(OC)c(OC)c(OC)c3)=NN2C(C)=O)ccc1OCc1ccccc1 (stereo not given)	False
Cn1cc(-c2nc(N)nnc2-c2c[nH]c3ccc(Br)cc23)c2cccnc21	False
CCOc1ccc(-c2c(C#N)c(-c3ccc(Cl)cc3)nc3n[nH]c(-c4ccc(Cl)cc4)c23)cc1OC	False

# input How was Cc1cccc(NC(=O)[C@]23CCC(C)(C)CC2C2=CCC4[C@@]5(C)C[C@@H](O)[C@H](O)[C@@](C)(CO)C5CC[C@@]4(C)[C@]2(C)CC3)c1 (stereo not given in full) classified in this test?
# output True

# input How was C(=C\c1cc(/C=C/c2ccccc2)c2ccccc2n1)/c1ccccc1 classified in this test?
# output False

# input How was O=C1/C(=C/C2=Cc3ccccc3OC2)SC(=S)N1c1ccccc1F classified in this test?
# output False

# input How was CC(=O)N1CCN(Cc2ccc3c(NNC(=O)c4cnccn4)nc4cc(F)ccc4n23)CC1 classified in this test?
# output False

# input How was C=C1CCC2C3(C)COC(c4cccs4)OC3CCC2(C)C1CC(Sc1ccccc1)C1=CCOC1=O (stereo not given) classified in this test?
# output False

# input How was CCCCCCCCc1ccc(C(=O)Nc2ccc(C)cc2C(=O)O)cc1C classified in this test?
# output False

# input How was CC(=O)Nc1cccc(Nc2nc(NCc3ccccc3)c3ccccc3n2)c1 classified in this test?
# output True

# input How was CC(=O)Oc1ccccc1C(=O)[Se]CC(=O)Nc1cccc(C(F)(F)F)c1 classified in this test?
# output False

# input How was COc1ccc2c(c1)c(/C=N/Nc1ccc3ccccc3n1)cn2C classified in this test?
# output True

# input How was O=c1oc2ccccc2cc1-c1csc(N=Nc2c(O)[nH]c3ccc(Cl)cc23)n1 classified in this test?
# output False
